All figures here come from the supplement of paper PMC8617591.

- Tested on: Mycobacterium tuberculosis Erdman (autoluminescent)
- Assay Name: GRinf, maximum normalised growth rate inhibition (three-drug combination) (unitless (-1 to 1)); higher = less effect (negative = killing)
- Run Parameters: in vitro model: dormancy (butyrate + nitrate, low O2); time point: terminal (~4-5 doublings, model-specific)
Note to self: values exactly at -0.1 are MET. So GRinf at or above -0.1 is MET, below is NOT MET.

Below are worked cases with known answers.
COc1nc2ccc(Br)cc2cc1[C@@H](c1ccccc1)[C@@](O)(CCN(C)C)c1cccc2ccccc12 [bedaquiline] + CC(=O)NC[C@H]1CN(c2ccc(N3CCOCC3)c(F)c2)C(=O)O1 [linezolid] + CO[C@H]1/C=C/O[C@@]2(C)Oc3c(C)c(O)c4c(O)c(c(/C=N/N5CCN(C6CCCC6)CC5)c(O)c4c3C2=O)NC(=O)/C(C)=C\C=C\[C@H](C)[C@H](O)[C@@H](C)[C@@H](O)[C@@H](C)[C@H](OC(C)=O)[C@@H]1C [rifapentine] = MET
NC(=O)c1cnccn1 [pyrazinamide] + CO[C@H]1/C=C/O[C@@]2(C)Oc3c(C)c(O)c4c(O)c(c(/C=N/N5CCN(C6CCCC6)CC5)c(O)c4c3C2=O)NC(=O)/C(C)=C\C=C\[C@H](C)[C@H](O)[C@@H](C)[C@@H](O)[C@@H](C)[C@H](OC(C)=O)[C@@H]1C [rifapentine] + CO[C@H]1/C=C/O[C@@]2(C)Oc3c(C)c(O)c4c(O)c(c(/C=N/N5CCN(C)CC5)c(O)c4c3C2=O)NC(=O)/C(C)=C\C=C\[C@H](C)[C@H](O)[C@@H](C)[C@@H](O)[C@@H](C)[C@H](OC(C)=O)[C@@H]1C = NOT MET
COc1nc2ccc(Br)cc2cc1[C@@H](c1ccccc1)[C@@](O)(CCN(C)C)c1cccc2ccccc12 [bedaquiline] + CC(C)/N=c1\cc2n(-c3ccc(Cl)cc3)c3ccccc3nc-2cc1Nc1ccc(Cl)cc1 [clofazimine] + COc1c(N2C[C@@H]3CCCN[C@@H]3C2)c(F)cc2c(=O)c(C(=O)O)cn(C3CC3)c12 [moxifloxacin] = MET

Q. Reported GRinf reaches at least -0.1 for COc1nc2ccc(Br)cc2cc1[C@@H](c1ccccc1)[C@@](O)(CCN(C)C)c1cccc2ccccc12 [bedaquiline] + CC(=O)NC[C@H]1CN(c2ccc(N3CCOCC3)c(F)c2)C(=O)O1 [linezolid] + CO[C@H]1/C=C/O[C@@]2(C)Oc3c(C)c(O)c4c(O)c(c(/C=N/N5CCN(C)CC5)c(O)c4c3C2=O)NC(=O)/C(C)=C\C=C\[C@H](C)[C@H](O)[C@@H](C)[C@@H](O)[C@@H](C)[C@H](OC(C)=O)[C@@H]1C [rifampicin] ?
A. NOT MET

====

Consider the following compounds; for each one, report its AUC25.
- Test system: Mycobacterium tuberculosis Erdman (autoluminescent)
- Assay Name: AUC25, normalised area under dose response up to IC25 (three-drug combination) (fraction (0-1)); higher = more potent at low dose
- Run Parameters: in vitro model: cholesterol 0.05 mM; time point: constant (~7 days, model-specific)
Give bare numbers.

Below: 3 compounds and their reported AUC25.
COc1nc2ccc(Br)cc2cc1[C@@H](c1ccccc1)[C@@](O)(CCN(C)C)c1cccc2ccccc12 [bedaquiline] + CC[C@@H](CO)NCCN[C@@H](CC)CO [ethambutol] + COc1c(N2C[C@@H]3CCCN[C@@H]3C2)c(F)cc2c(=O)c(C(=O)O)cn(C3CC3)c12 [moxifloxacin] = 0.0787
NNC(=O)c1ccncc1 [isoniazid] + O=[N+]([O-])c1cn2c(n1)OC[C@@H](OCc1ccc(OC(F)(F)F)cc1)C2 [pretomanid] + NC(=O)c1cnccn1 [pyrazinamide] = 0.106
COc1c(N2C[C@@H]3CCCN[C@@H]3C2)c(F)cc2c(=O)c(C(=O)O)cn(C3CC3)c12 [moxifloxacin] + NC(=O)c1cnccn1 [pyrazinamide] + CO[C@H]1/C=C/O[C@@]2(C)Oc3c(C)c(O)c4c(O)c(c(/C=N/N5CCN(C)CC5)c(O)c4c3C2=O)NC(=O)/C(C)=C\C=C\[C@H](C)[C@H](O)[C@@H](C)[C@@H](O)[C@@H](C)[C@H](OC(C)=O)[C@@H]1C [rifampicin] = 0.096

# next compound below
Q. Return reported AUC25. Input compound: CC(C)/N=c1\cc2n(-c3ccc(Cl)cc3)c3ccccc3nc-2cc1Nc1ccc(Cl)cc1 [clofazimine] + COc1c(N2C[C@@H]3CCCN[C@@H]3C2)c(F)cc2c(=O)c(C(=O)O)cn(C3CC3)c12 [moxifloxacin] + NC(=O)c1cnccn1 [pyrazinamide]
A. 0.129
